Reference for the values: patent US8741931B2

Parameter: Ki. Scope: all listed entries.
Biological target: PKC delta kinase (Homo sapiens, UniProt Q05655)
Sequence (Q05655 whole entry): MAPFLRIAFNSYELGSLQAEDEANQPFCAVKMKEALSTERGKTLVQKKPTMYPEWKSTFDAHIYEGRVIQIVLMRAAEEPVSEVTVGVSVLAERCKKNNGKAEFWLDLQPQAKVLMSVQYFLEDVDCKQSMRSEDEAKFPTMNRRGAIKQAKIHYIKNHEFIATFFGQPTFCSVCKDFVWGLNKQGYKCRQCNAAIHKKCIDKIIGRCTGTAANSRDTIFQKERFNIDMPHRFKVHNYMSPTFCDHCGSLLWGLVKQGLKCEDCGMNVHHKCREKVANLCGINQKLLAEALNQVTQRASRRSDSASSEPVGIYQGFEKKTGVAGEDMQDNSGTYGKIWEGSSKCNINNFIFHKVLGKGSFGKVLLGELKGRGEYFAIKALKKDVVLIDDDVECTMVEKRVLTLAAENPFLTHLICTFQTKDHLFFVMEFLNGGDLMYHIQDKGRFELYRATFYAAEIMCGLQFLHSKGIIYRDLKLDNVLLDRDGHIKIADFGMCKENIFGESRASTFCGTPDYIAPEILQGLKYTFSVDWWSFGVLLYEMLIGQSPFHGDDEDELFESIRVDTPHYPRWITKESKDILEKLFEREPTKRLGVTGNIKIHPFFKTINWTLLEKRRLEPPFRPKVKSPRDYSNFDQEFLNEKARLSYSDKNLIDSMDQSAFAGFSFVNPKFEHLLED
Assay: PKC Delta (coupled enzyme assay)
Format: biochemical
Settings: 150 μM ATP, 46 nM PKC delta; read-out: Ki PKC delta

Below: 7 compounds and their reported Ki.
>>> df
                                   compound     measurement
0  Cc1ccsc1C(=O)N1CCCN(c2cccc(C(=O)c3cccnc3N)n2)CC1   0.5 to 2.8 µM
1  C=Cc1cnc(N)c(C(=O)c2nc(N3CCN[C@@H](CC(C)C)C3)ccc2C(F)(F)F)c1  0.05 to 0.5 µM
2  CC[C@@](CN)(CNc1ccc(C(F)(F)F)c(C(=O)c2cccnc2N)n1)c1ccccc1  0.05 to 0.5 µM
3  Nc1ncccc1C(=O)c1cccc(N2CCCN(C(=O)CC(F)(F)F)CC2)n1  0.05 to 0.5 µM
4  CCC[C@H]1CN(c2ccc(C(F)(F)F)c(C(=O)c3cccnc3N)n2)C[C@H](CC(C)C)N1   0.5 to 2.8 µM
5  Nc1ncccc1C(=O)c1nc(N2CCNC(C(F)(F)F)C2)ccc1C(F)(F)F (centres unmarked)  0.05 to 0.5 µM
6    Nc1ncc(Br)cc1C(=O)c1nc(N2CCC(N)CC2)cs1  0.05 to 0.5 µM

Then this compound:
Record request: Ki value, item Nc1ncc(Br)cc1C(=O)c1cccc(N2CCC(N3CCCC3)CC2)n1 0.05 to 0.5 µM

---

# reported pKi; entries follow
Molecular target: PKC delta kinase (Homo sapiens, UniProt Q05655)
Experiment: PKC Delta (coupled enzyme assay)
Assay type: biochemical
Conditions: 150 μM ATP, 46 nM PKC delta; read-out: Ki PKC delta
pKi: −log10 of the molar value.

# annotated cases, reported pKi shown
>>> print(df.to_string())
                                   molecule  propertyname   measurement
0  CC[C@@H]1CN(c2ccc(C(F)(F)F)c(C(=O)c3cccnc3N)n2)C[C@H](C(C)C)N1           pKi        < 5.55
1   CCc1cnc(N)c(C(=O)c2cccc(N3CCCNCC3)n2)c1           pKi  6.30 to 7.30
2  C=C(F)c1ccc(N2CCN[C@@H](CC(C)(C)F)C2)nc1C(=O)c1cccnc1N           pKi  6.30 to 7.30
3  NCC1CCCC(CNc2ccc(C(F)(F)F)c(C(=O)c3cccnc3N)n2)C1 (centres unmarked)           pKi  6.30 to 7.30
4  CC(C)(O)CC1CN(c2ccc(C(F)(F)F)c(C(=O)c3cccnc3N)n2)CCN1 (centres unmarked)           pKi  6.30 to 7.30

// moving on: another record for pKi
Please give the measured pKi for this molecule: C=C(F)c1ccc(N2CCN[C@H](c3ccccc3)C2)nc1C(=O)c1cccnc1N 6.30 to 7.30

---

Form field: pKi (one value per entry).
Molecular target: PKC delta kinase (Homo sapiens, UniProt Q05655)
Assay: PKC Delta (coupled enzyme assay)
Type: biochemical
Settings: 150 μM ATP, 46 nM PKC delta; read-out: Ki PKC delta
pKi: −log10 of the molar value.

The examples below pair each entry with its known result.
>>> df
                                   compound   measurement
0  COCC#Cc1cnc(N)c(C(=O)c2cccc(N3CCCNCC3)n2)c1  6.30 to 7.30
1  Nc1ncccc1C(=O)c1nc(N2CCN[C@@H](c3ccccc3)C2)ccc1C(F)(F)F  6.30 to 7.30
2  Nc1ncccc1C(=O)c1cccc(N2CCCN(C(=O)c3cccs3)CC2)n1        < 5.55
3  Cc1ccc(-c2ccc(N3CCNCC3)nc2C(=O)c2cccnc2N)o1  6.30 to 7.30
4  Nc1ncccc1C(=O)c1nc(N2CCN[C@H](c3ccccc3)C2)ccc1C(F)(F)F  5.55 to 6.30

Can you look up the measured pKi of Nc1ncc(Br)cc1C(=O)c1cccc(N2CCCN(CC3CC3)CC2)n1 for me? 6.30 to 7.30

Queued: CC(C)(C)CCN1CCCN(c2cccc(C(=O)c3cc(Br)cnc3N)n2)CC1 5.55 to 6.30

And CC(C)(C)CN1CCCN(c2cccc(C(=O)c3cccnc3N)n2)CC1 ? 5.55 to 6.30
